src = patent EP2914280B1

- test_system: hSSTR2 (Homo sapiens, UniProt P30874)
- Construct: host or cells: 'Cells expressing hSSTR2'
- Sequence (P30874 whole entry): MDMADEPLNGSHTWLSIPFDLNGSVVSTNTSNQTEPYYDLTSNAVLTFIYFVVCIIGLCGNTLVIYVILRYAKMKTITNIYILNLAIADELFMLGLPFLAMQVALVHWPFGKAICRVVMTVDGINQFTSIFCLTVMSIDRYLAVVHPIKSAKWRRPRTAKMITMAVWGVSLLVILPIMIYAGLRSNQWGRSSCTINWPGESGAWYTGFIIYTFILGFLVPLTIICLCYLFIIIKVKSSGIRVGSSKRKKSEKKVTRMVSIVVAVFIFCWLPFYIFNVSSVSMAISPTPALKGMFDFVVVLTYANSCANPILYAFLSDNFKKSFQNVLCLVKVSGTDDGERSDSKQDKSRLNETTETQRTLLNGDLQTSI
- protocol_description: Intracellular calcium mobilization assay (FLIPR Calcium 4), hSSTR2;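 further: agonist activity measured in cells expressing hSSTR2, seeded in 384-well plates, loaded with Calcium 4 dye, read-out as rise in intracellular calcium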
- Type: cell-based
measured_property: pEC50
# pEC50 is unitless: minus log10 of the molar concentration; print number only

1. C[C@@H](O)[C@@H]1NC(=O)[C@H](CCCCN)NC(=O)[C@@H](Cc2c[nH]c3ccccc23)NC(=O)[C@H](Cc2ccccc2)NC(=O)[C@H](Cc2ccccc2)NC(=O)[C@H](CCCNC(=N)N)NC(=O)[C@H](NCCCCC[C@@H]2C[C@@H]3c4cccc5[nH]cc(c45)C[C@H]3N(C)C2)CCCCNC(=O)[C@H](Cc2ccc(F)cc2)NC1=O 6.86

The reported pEC50 of the compound C[C@@H](O)[C@@H]1NC(=O)[C@H](CCCCN)NC(=O)[C@@H](Cc2c[nH]c3ccccc23)NC(=O)[C@H](Cc2ccccc2)NC(=O)[C@H](Cc2ccccc2)NC(=O)[C@H](CCCNC(=N)N)NC(=O)[C@H](NCCSC[C@@H]2C[C@@H]3c4cccc5[nH]cc(c45)C[C@H]3N(C)C2)CCCCNC(=O)[C@H](Cc2ccccc2)NC1=O was 8.01

====

- test_system: hDRD2 (Homo sapiens)
- Sequence (P14416 whole entry): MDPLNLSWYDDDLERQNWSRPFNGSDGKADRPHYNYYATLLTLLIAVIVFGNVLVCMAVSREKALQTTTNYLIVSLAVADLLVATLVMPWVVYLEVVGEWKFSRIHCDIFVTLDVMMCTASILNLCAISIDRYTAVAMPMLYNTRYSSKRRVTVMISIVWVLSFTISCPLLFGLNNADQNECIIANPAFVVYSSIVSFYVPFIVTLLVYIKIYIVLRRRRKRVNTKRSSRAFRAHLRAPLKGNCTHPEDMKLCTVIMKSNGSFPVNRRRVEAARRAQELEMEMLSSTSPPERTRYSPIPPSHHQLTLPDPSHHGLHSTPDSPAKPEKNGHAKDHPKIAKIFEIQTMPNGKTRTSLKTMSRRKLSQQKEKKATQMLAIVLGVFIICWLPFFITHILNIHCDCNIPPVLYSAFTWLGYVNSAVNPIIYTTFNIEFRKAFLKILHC
- protocol_description: biochemical
- Assay type: binding
- Set-up: expressed in transfected cells; host or cells: CHO-K1, pcDNA3.1/GS, zeocin-selected clonal line; membranes
Examples of compounds with documented Ki follow.
Unit nM implied. Number only.

compound	test_system	unit	Ki
C[C@@H](O)[C@@H]1NC(=O)[C@H](CCCCN)NC(=O)[C@@H](Cc2c[nH]c3ccccc23)NC(=O)[C@H](Cc2ccncc2)NC(=O)[C@H](Cc2ccccc2)NC(=O)[C@H](CCCNC(=N)N)NC(=O)[C@H](NCC[S@+]([O-])C[C@@H]2C[C@@H]3c4cccc5[nH]cc(c45)C[C@H]3N(C)C2)CCCCNC(=O)[C@H](Cc2ccc(O)cc2)NC1=O	hDRD2 (Homo sapiens)	nM	79.7
C[C@@H](O)[C@@H]1NC(=O)[C@H](CCCCN)NC(=O)[C@@H](Cc2c[nH]c3ccccc23)NC(=O)[C@H](Cc2ccncc2)NC(=O)[C@H](Cc2ccccc2)NC(=O)[C@H](CCCNC(=N)N)NC(=O)[C@H](NC[C@H](Cc2ccc(O)cc2)NC(=O)C[S+]([O-])C[C@@H]2C[C@@H]3c4cccc5[nH]cc(c45)C[C@H]3N(C)C2)CCCCNC(=O)[C@H](Cc2ccccc2)NC1=O (stereo partly drawn)	hDRD2 (Homo sapiens)	nM	149

Consider now this further compound.
The reported Ki of the compound C[C@@H](O)[C@@H]1NC(=O)[C@H](CCCCN)NC(=O)[C@@H](Cc2c[nH]c3ccccc23)NC(=O)[C@H](Cc2ccccc2)NC(=O)[C@H](Cc2ccccc2)NC(=O)[C@H](CCCNC(=N)N)NC(=O)[C@H](NCCCS(=O)(=O)C[C@@H]2C[C@@H]3c4cccc5[nH]cc(c45)C[C@H]3N(C)C2)CCCCNC(=O)[C@H](Cc2ccc(F)cc2)NC1=O was 19.4

====

- test_system: hDRD2 (Homo sapiens)
- protocol_description: biochemical
- Format: binding
- Set-up: expressed in transfected cells; host or cells: CHO-K1, pcDNA3.1/GS, zeocin-selected clonal line; membranes
Examples of compounds with documented Ki follow.
Unit nM implied. Number only.

compound	Ki (nM)
C[C@@H](O)[C@@H]1NC(=O)[C@H](CCCCN)NC(=O)[C@@H](Cc2c[nH]c3ccccc23)NC(=O)[C@H](Cc2ccncc2)NC(=O)[C@H](Cc2ccccc2)NC(=O)[C@H](CCCNC(=N)N)NC(=O)[C@H](NCCSC[C@@H]2C[C@@H]3c4cccc5[nH]cc(c45)C[C@H]3N(C)C2)CCCCNC(=O)[C@H](Cc2ccccc2)NC1=O	328

With hDRD2 (Homo sapiens) as the test system, C[C@@H](O)[C@@H]1NC(=O)[C@H](CCCCN)NC(=O)[C@@H](Cc2c[nH]c3ccccc23)NC(=O)[C@H](Cc2ccccc2)NC(=O)[C@H](Cc2ccccc2)NC(=O)[C@H](CCCNC(=N)N)NC(=O)[C@H](NC[C@H](Cc2ccc(O)cc2)NC(=O)C[S+]([O-])C[C@@H]2C[C@@H]3c4cccc5[nH]cc(c45)C[C@H]3N(C)C2)CCCCNC(=O)[C@H](Cc2ccc(F)cc2)NC1=O (stereo partly drawn) showed Ki of 32.5

With hDRD2 (Homo sapiens) as the test system, C[C@@H](O)[C@@H]1NC(=O)[C@H](CCCCN)NC(=O)[C@@H](Cc2c[nH]c3ccccc23)NC(=O)[C@H](Cc2ccccc2)NC(=O)[C@H](Cc2ccccc2)NC(=O)[C@H](CCCNC(=N)N)NC(=O)[C@H](NCC[S+]([O-])C[C@@H]2C[C@@H]3c4cccc5[nH]cc(c45)C[C@H]3N(C)C2)CCCCNC(=O)[C@H](Cc2ccc(F)cc2)NC1=O (stereo partly drawn) showed Ki of 76.5
